Origin of the recorded values: patent US20210206856A1

target.entity: T1, mouse MAdCAM expressed on cells (mouse, UniProt Q61826 22-405)
T1 construct: whole, on cells
T1 sequence (looked up): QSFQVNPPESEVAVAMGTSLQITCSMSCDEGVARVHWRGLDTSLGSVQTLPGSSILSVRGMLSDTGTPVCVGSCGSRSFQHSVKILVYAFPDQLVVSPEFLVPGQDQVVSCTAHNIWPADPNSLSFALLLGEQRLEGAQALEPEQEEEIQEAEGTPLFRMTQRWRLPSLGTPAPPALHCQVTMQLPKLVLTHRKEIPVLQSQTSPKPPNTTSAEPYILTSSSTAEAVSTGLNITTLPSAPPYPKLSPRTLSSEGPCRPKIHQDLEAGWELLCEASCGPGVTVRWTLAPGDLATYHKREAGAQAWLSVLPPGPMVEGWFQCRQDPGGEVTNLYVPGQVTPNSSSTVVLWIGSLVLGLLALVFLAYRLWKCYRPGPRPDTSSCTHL
method: cell binding

binder	binding result
MAdCAM Antibody Table 1 Clone 32 (scFv) scFv: QVQLVQSGAEVKKPGASVKVSCKASGYTLTDYYMHWVRQAPGQGLEWMGIINPSGGSTSYAQKFQGRVTMTRDTSTSTVYMELSSLRSEDTAVYYCAREEYSSSSGYFDYWGQGTLVTVSSGGGGSGGGGSGGGGSGGGGSDIQMTQSPSSLSASVGDRVTITCRASQGISSWLAWYQQKPGKAPKLLIYAASSLQSGVPSRFSGSGSGTDFTLTISSLQPEDFATYYCQQSYSTPLTFGQGTKVEIK	no binding
MAdCAM Antibody Table 1 Clone 44 (scFv) scFv: EVQLVESGGGLVKPGGSLRLSCAASGFTFSSYWMSWVRQAPGKGLEWVSAIGTGGGTYYAAPVKGRFTISRDDSKNTLYLQMNSLKTEDTAVYYCAREWLVPYYGMDVWGQGTTVTVSSGGGGSGGGGSGGGGSGGGGSDIQMTQSPSSLSASVGDRVTITCRASQSISRWLAWYQQKPGKAPKLLIYGASNLQSGVPSRFSGSGSGTDFTLTISSLQPEDFATYYCQQSYSTPWTFGQGTKVEIK	no binding
MAdCAM Antibody Table 1 Clone 60 (scFv) scFv: EVQLLESGGGLVQPGGSLRLSCAASGFTFDDYTMHWVRQAPGKGLEWVSDISGSGGSTYYADSVKGRFTISRDNSKNTLYLQMNSLRAEDTAVYYCAKDVVVAGTPLHFDYWGQGTLVTVSSGGGGSGGGGSGGGGSGGGGSDIQMTQSPSSLSASVGDRVTITCQASQDISNYLNWYQQKPGKAPKLLIYAASYLQSGVPSRFSGSGSGTDFTLTISSLQPEDFATYYCQQAHNYPITFGQGTRLEIK	binds
MAdCAM Antibody Table 1 Clone 58 (scFv) scFv: QVQLVQSGAEVKKPGASVKVSCKASGYTFTGYYMHWVRQAPGQGLEWMGIINPSGGNTKYAQKFQGRVTMTRDTSTSTVYMELSSLRSEDTAVYYCTTADYYYYMDVWGKGTTVTVSSGGGGSGGGGSGGGGSGGGGSDIQMTQSPSSLSASVGDRVTITCRASQGISNYLAWYQQKPGKAPKLLIYAASSLQSGVPSRFSGSGSGTDFTLTISSLQPEDFATYYCQQYYSNADFGQGTKVEIK	no binding
MAdCAM Antibody Table 1 Clone 47 (scFv) scFv: EVQLLESGGGLVQPGGSLRLSCAASGFSFSDYGMHWVRQAPGKGLEWVSAISGSGGSTYYADSVKGRFTISRDNSKNTLYLQMNSLRAEDTAVYYCARDGGWQPAAILDYWGQGTLVTVSSGGGGSGGGGSGGGGSGGGGSDIQMTQSPSSLSASVGDRVTITCRASQGISNNLNWYQQKPGKAPKLLIYDASNLETGVPSRFSGSGSGTDFTLTISSLQPEDFATYYCQQSYSTPLTFGGGTKVEIK	no binding
